Overview of recorded Anti-HIV-1 RT % Inhibition at 200 μg/ml for various molecules
- Study Target: HIV-1 RT (Human immunodeficiency virus type 1 group M subtype B, UniProt P03366)
- Construct: made in house; host or cells: Escherichia coli
- Assay Summary: Anti-HIV-1 RT assay (recombinant enzyme)
- Assay type: biochemical
- Condition Summary: 200 μg/ml
Note: unit % is implicit; provide only the numeric part.

Molecule	Anti-HIV-1 RT % Inhibition at 200 μg/ml [%]
O=C1C[C@@H](c2ccc(O)c(O)c2)Oc2c1c(O)cc(O)c2[C@H]1C(=O)c2c(O)cc(O)cc2O[C@@H]1c1ccc(O)cc1 [GB-2a(16), GB-2a]	96

# get_value(readout='Anti-HIV-1 RT % Inhibition at 200 μg/ml', item= O=C1C[C@@H](c2ccc(O)cc2)Oc2c1c(O)cc(O[C@@H]1O[C@H](CO)[C@@H](O)[C@H](O)[C@H]1O)c2[C@H]1C(=O)c2c(O)cc(O)cc2O[C@@H]1c1ccc(O)cc1 [GB-1a glucoside (15), GB-1a 7″-O-b-glucoside] )
1.46

# get_value(readout='Anti-HIV-1 RT % Inhibition at 200 μg/ml', item= CC(=O)Oc1ccc([C@@H]2CC(=O)c3c(cc(OC(C)=O)c(-c4c(OC(C)=O)cc5c(c4OC(C)=O)C(=O)C[C@@H](c4ccc(OC(C)=O)cc4)O5)c3OC(C)=O)O2)cc1 [Succedaneaflavanone hexaacetate (12), succedaneaflavanone hexaacetate] )
0.00

# get_value(readout='Anti-HIV-1 RT % Inhibition at 200 μg/ml', item= CC(=O)Oc1ccc([C@@H]2CC(=O)c3c(cc(OC(C)=O)c(-c4c(OC(C)=O)cc(OC(C)=O)c5c4O[C@H](c4ccc(OC(C)=O)cc4)CC5=O)c3OC(C)=O)O2)cc1 [Rhusflavanone hexaacetate (10), rhusflavanone hexaacetate] )
0.00

====

Overview of recorded VZV SI (CC50/EC50) for various compounds
- System: VZV
- Assay Summary: VZV plaque reduction assay in HFF cells
- Condition Summary: HFF Cells
Respond numerically, and do not add a unit to the figure.

Answered examples (2):
Compound	Study Target	Data Value
CC(=O)Oc1ccc([C@@H]2CC(=O)c3c(cc(OC(C)=O)c(-c4c(OC(C)=O)cc5c(c4OC(C)=O)C(=O)C[C@@H](c4ccc(OC(C)=O)cc4)O5)c3OC(C)=O)O2)cc1 [Succedaneaflavanone hexaacetate (12), succedaneaflavanone hexaacetate]	VZV	9.6
CC(=O)Oc1ccc([C@@H]2CC(=O)c3c(cc(OC(C)=O)c(-c4c(OC(C)=O)cc(OC(C)=O)c5c4O[C@H](c4ccc(OC(C)=O)cc4)CC5=O)c3OC(C)=O)O2)cc1 [Rhusflavanone hexaacetate (10), rhusflavanone hexaacetate]	VZV	4.1

Now, please, on to the next compound.
Missing value: VZV SI (CC50/EC50), VZV, entry COc1ccc(-c2cc(=O)c3c(OC)cc(OC)c(C4C(=O)c5c(OC)cc(OC)cc5OC4c4ccc(OC)cc4)c3o2)cc1 (stereo not shown) . Fill in?
3.4

====

- Assay Summary: Cytotoxicity by neutral red dye uptake, A549 cells
- Condition Summary: human
Measure: IC50 (mg/L)
Note: unit mg/L is implicit; provide only the numeric part.

                                   compound  data_value
0  O=C1CC(c2ccc(O)cc2)Oc2cc(O)c(-c3c(O)cc(O)c4c3OC(c3ccc(O)cc3)CC4=O)c(O)c21 (stereo not shown)          15

# get_value(readout='IC50', item= COc1ccc(-c2cc(=O)c3c(OC)cc(OC)c(C4C(=O)c5c(OC)cc(OC)cc5OC4c4ccc(OC)cc4)c3o2)cc1 (stereo not shown) )
50

# get_value(readout='IC50', item= O=C1CC(c2ccc(O)cc2)Oc2cc(O)c(-c3c(O)cc4c(c3O)C(=O)CC(c3ccc(O)cc3)O4)c(O)c21 (stereo not shown) )
27

# get_value(readout='IC50', item= O=c1cc(-c2ccc(O)c(-c3c(O)cc4oc(-c5ccc(O)cc5)cc(=O)c4c3O)c2)oc2cc(O)cc(O)c12 )
102

====

- Assay Summary: Cytotoxicity in uninfected PHA-stimulated human PBM cells
- Condition Summary: human
Measure: pIC50
For clarity, pIC50 is expressed as the negative log10 of concentration in mol/L.

Answered examples (2):
>>> print(df.to_string())
                                   compound  data_value
0  O=C1CC(c2ccc(O)cc2)Oc2c1c(O)cc(O)c2C1C(=O)c2c(O)cc(O)cc2OC1c1ccc(O)cc1 (stereo not drawn)        4.06
1  O=c1cc(-c2ccc(O)c(-c3c(O)cc4oc(-c5ccc(O)cc5)cc(=O)c4c3O)c2)oc2cc(O)cc(O)c12        4.11

# get_value(readout='pIC50', item= O=C1c2c(O)cc(O)cc2O[C@H](c2ccc(O)cc2)[C@H]1c1c(O)cc(O)c2c(=O)cc(-c3ccc(O)c(O)c3)oc12 )
4.09

====

- Test system: Hepatitis B Virus (HBV)
- Assay Summary: Inhibition of HBV replication in 2.2.15 cells, extracellular (virion) HBV DNA;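 note: extracellular virion HBV DNA in culture medium measured by slot blot hybridization with a 32P-labeled HBV probe, quantified against HBV DNA standards, after 9 days of daily dosing, compared with day 0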
- Condition Summary: selective index
Just a reminder that ties go to F: only SI (CC50/EC90), HBV Virion strictly below 200 counts as T.

Compound	Study Target	Assigned Label
CC(=O)Oc1ccc(-c2cc(=O)c3c(OC(C)=O)c(-c4cc(-c5cc(=O)c6c(OC(C)=O)cc(OC(C)=O)cc6o5)ccc4OC(C)=O)c(OC(C)=O)cc3o2)cc1 [Robustaflavone Hexaacetate, robustaflavone hexaacetate]	Hepatitis B Virus (HBV)	F
CC(=O)Oc1ccc([C@@H]2CC(=O)c3c(cc(OC(C)=O)c(-c4c(OC(C)=O)cc(OC(C)=O)c5c4O[C@H](c4ccc(OC(C)=O)cc4)CC5=O)c3OC(C)=O)O2)cc1 [Rhusflavanone hexaacetate (10), rhusflavanone hexaacetate]	Hepatitis B Virus (HBV)	T
Nc1nc2c(ncn2CCC(CO)CO)c(=O)[nH]1 [Penciclovir, penciclovir, reference compound]	Hepatitis B Virus (HBV)	F
O=c1cc(-c2ccc(OS(=O)(=O)O)c(-c3c(OS(=O)(=O)O)cc4oc(-c5ccc(OS(=O)(=O)O)cc5)cc(=O)c4c3O)c2)oc2cc(OS(=O)(=O)O)cc(O)c12 [Robustaflavone tetrasulfate (17)]	Hepatitis B Virus (HBV)	T
O=c1cc(-c2ccc(O)c(-c3c(O)cc4oc(-c5ccc(O)cc5)cc(=O)c4c3O)c2)oc2cc(O)cc(O)c12 [Robustaflavone (3), robustaflavone]	Hepatitis B Virus (HBV)	T

Please look at the following compound next.
Problem: For the compound Nc1ccn([C@@H]2CS[C@H](CO)O2)c(=O)n1 [Lamivudine (3TC), lamivudine, reference compound] , is SI (CC50/EC90), HBV Virion under 200?
F

====

- Assay Summary: in vitro
- Condition Summary: dog, CPE Inhibition IC50 (50% cell inhibitory (cytotoxic) concentration)
Measure: IC50 (µg/mL)
Note: unit µg/mL is implicit; provide only the numeric part.

# get_value(readout='IC50', item= NC(=O)c1ncn([C@@H]2O[C@H](CO)[C@@H](O)[C@H]2O)n1 [Ribavirin, ribavirin, reference compound] )
562

====

- Test system: VZV
- Assay Summary: VZV plaque reduction assay in HFF cells
- Condition Summary: HFF Cells
Measure: VZV SI (CC50/EC50)

# get_value(readout='VZV SI (CC50/EC50)', item= O=C1CC(c2ccc(O)cc2)Oc2cc(O)c(-c3c(O)cc(O)c4c3OC(c3ccc(O)cc3)CC4=O)c(O)c21 (stereo not shown) )
<4

# get_value(readout='VZV SI (CC50/EC50)', item= O=c1cc(-c2ccc(Oc3c(O)cc4oc(-c5ccc(O)cc5)cc(=O)c4c3O)cc2)oc2cc(O)cc(O)c12 )
<4.2

# get_value(readout='VZV SI (CC50/EC50)', item= O=c1cc(-c2ccc(O)c(-c3c(O)cc(O)c4c(=O)cc(-c5ccc(O)cc5)oc34)c2)oc2cc(O)cc(O)c12 )
<2.3

# get_value(readout='VZV SI (CC50/EC50)', item= O=C1CC(c2ccc(O)cc2)Oc2cc(O)c(-c3c(O)cc4c(c3O)C(=O)CC(c3ccc(O)cc3)O4)c(O)c21 (stereo not shown) )
< 3
